Origin of measurements: patent US20250197451A1

- tested target: T1, biotin-labelled EZH2 protein (UniProt Q15910 1-746, limits assumed, biotin label (EZ-link NHS-PEO4-Biotinylation kit))
- T1 construct: Probe in solution (1 ug/ml) on the KDM2B peptide microarray; also called NHS-PEO4-Biotinylation-labelled EZH2 protein; recombinant protein
- T1 sequence (Q15910 whole entry): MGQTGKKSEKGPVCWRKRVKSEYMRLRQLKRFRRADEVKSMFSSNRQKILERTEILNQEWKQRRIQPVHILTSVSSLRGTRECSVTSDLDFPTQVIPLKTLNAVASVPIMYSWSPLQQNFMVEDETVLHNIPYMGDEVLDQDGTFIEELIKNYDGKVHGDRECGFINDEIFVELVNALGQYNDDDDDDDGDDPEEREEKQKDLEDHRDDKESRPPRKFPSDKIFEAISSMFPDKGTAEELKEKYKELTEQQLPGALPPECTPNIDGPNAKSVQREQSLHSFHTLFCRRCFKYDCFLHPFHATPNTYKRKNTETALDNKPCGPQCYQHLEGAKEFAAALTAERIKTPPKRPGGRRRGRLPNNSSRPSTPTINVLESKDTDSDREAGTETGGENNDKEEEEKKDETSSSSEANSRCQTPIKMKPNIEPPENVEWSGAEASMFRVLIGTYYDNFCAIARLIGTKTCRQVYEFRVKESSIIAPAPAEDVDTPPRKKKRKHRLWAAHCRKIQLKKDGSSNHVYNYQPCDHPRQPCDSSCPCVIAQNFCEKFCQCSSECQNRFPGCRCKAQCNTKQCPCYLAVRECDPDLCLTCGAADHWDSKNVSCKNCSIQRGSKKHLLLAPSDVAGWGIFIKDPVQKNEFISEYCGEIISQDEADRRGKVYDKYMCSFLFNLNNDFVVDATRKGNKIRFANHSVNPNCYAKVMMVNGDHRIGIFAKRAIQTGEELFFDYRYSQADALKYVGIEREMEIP
- assay: KDM2B peptide array probed with biotin-EZH2 1 ug/ml, SA-HRP/ECL;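 also: 100% is the highest background-corrected spot optical density on the membrane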;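 also: Background-corrected optical density of each spot on the membrane, given as percent of the brightest spot (100%), color developed for 5 minutes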
Each record here notes measured Intensity (%).

{"columns": ["binder", "unit", "Intensity (%)"],
 "data": [
  ["LIFREKDGLGIKMPD [peptide 22]", "%", 2.54],
  ["AEMSVSVQFGQVEEK [peptide 264]", "%", 2.91],
  ["QWVEGLKDAQMRDLL [peptide 237]", "%", 1.18],
  ["GFSSDSWLEMEEEAC [peptide 81]", "%", 7.19],
  ["RTTAGARRRRTRCRK [peptide 121]", "%", 1.31],
  ["YTKCFEFESATQRPI [peptide 7]", "%", 0],
  ["QRIELKQGYTFFIPS [peptide 60]", "%", 0.3],
  ["EEEGKFNLMLMECSI [peptide 136]", "%", 0],
  ["SYCNHVTDQSINLLT [peptide 250]", "%", 0],
  ["KPSIDGFSSDSWLEM [peptide 80]", "%", 6.61],
  ["DELPNCWECPKCNHA [peptide 143]", "%", 0],
  ["ELPEAPPKTRESDHS [peptide 180]", "%", 0],
  ["TQRPIDRQRYDENED [peptide 9]", "%", 0],
  ["TEGAEGPEEKKKVKM [peptide 185]", "%", 0],
  ["LSPWWRSSLTYFQQQ [peptide 169]", "%", 0]
]}
